Taken from patent US12091424B2.

Test: in vivo
Conditions: male, Sprague Dawley, rat, whole blood, oral, 3 mg/kg
Each entry below carries its recorded bioavailability.
Expressed in %, but write only the number.

| Molecule | bioavailability [%] |
| --- | --- |
| CO[C@@H]1C[C@H](C[C@@H](C)[C@@H]2CC[C@H](C)/C=C(\C)[C@@H](O)[C@@H](OC)C(=O)[C@H](C)C[C@H](C)/C=C/C=C/C=C(\C)[C@H](N3CCCS3(=O)=O)C[C@@H]3CC[C@@H](C)[C@@](O)(O3)C(=O)C(=O)N3CCCC[C@H]3C(=O)O2)CC[C@H]1O | 18 |

Lab book: bioavailability of CO[C@H]1C[C@@H]2CC[C@@H](C)[C@@](O)(O2)C(=O)C(=O)N2CCCC[C@H]2C(=O)O[C@H]([C@H](C)C[C@@H]2CC[C@@H](OCCO)[C@H](OC)C2)CC(=O)[C@H](C)/C=C(\C)[C@@H](O)[C@@H](OC)C(=O)[C@H](C)C[C@H](C)/C=C/C=C/C=C/1C [RAD001, everolimus, reference compound] noted as 19
